Biological target: Steryl-sulfatase (Homo sapiens)
Design: species or system Placenta, Microsome
pIC50: −log10 of the molar value.
metric: pIC50

The examples below pair each entry with its known result.
{"molecule": "NS(=O)(=O)Oc1ccc2c3c(c(=O)oc2c1)CCCCCCC3", "metric": "pIC50", "recorded-value": 8.62}
{"molecule": "NS(=O)(=O)Oc1ccc2c(c1)OC(=O)C1CCCCCC21 (stereo not given)", "metric": "pIC50", "recorded-value": 8.10}
{"molecule": "NS(=O)(=O)Oc1ccc2c3c(c(=O)oc2c1)CCCCCCCCCCC3", "metric": "pIC50", "recorded-value": 7.12}
{"molecule": "NS(=O)(=O)Oc1ccc2c3c(c(=O)oc2c1)CCCCCCCCCCCCC3", "metric": "pIC50", "recorded-value": 6.43}
{"molecule": "NS(=O)(=O)Oc1ccc2c3c(c(=O)oc2c1)CCCCCCCCCC3", "metric": "pIC50", "recorded-value": 7.22}
{"molecule": "COc1cc2c(cc1OS(N)(=O)=O)CC[C@@H]1[C@@H]2CC[C@]2(C)C(=O)CC[C@@H]12", "metric": "pIC50", "recorded-value": 7.52}
{"molecule": "NS(=O)(=O)Oc1ccc2c3c(c(=O)oc2c1)CCCC3", "metric": "pIC50", "recorded-value": 7.15}
{"molecule": "NS(=O)(=O)Oc1ccc2c3c(c(=O)oc2c1)CCCCCC3", "metric": "pIC50", "recorded-value": 7.52}

[I] NS(=O)(=O)Oc1ccc2c3c(c(=O)oc2c1)CCC3
[II] NS(=O)(=O)Oc1ccc2c3c(c(=O)oc2c1)CCCCCCCC3
Field: lower recorded pIC50 (choose I or II ) Answer with the label corresponding to your selection.
I

====

Target: Steryl-sulfatase (Homo sapiens)
Sequence (P08842 whole entry): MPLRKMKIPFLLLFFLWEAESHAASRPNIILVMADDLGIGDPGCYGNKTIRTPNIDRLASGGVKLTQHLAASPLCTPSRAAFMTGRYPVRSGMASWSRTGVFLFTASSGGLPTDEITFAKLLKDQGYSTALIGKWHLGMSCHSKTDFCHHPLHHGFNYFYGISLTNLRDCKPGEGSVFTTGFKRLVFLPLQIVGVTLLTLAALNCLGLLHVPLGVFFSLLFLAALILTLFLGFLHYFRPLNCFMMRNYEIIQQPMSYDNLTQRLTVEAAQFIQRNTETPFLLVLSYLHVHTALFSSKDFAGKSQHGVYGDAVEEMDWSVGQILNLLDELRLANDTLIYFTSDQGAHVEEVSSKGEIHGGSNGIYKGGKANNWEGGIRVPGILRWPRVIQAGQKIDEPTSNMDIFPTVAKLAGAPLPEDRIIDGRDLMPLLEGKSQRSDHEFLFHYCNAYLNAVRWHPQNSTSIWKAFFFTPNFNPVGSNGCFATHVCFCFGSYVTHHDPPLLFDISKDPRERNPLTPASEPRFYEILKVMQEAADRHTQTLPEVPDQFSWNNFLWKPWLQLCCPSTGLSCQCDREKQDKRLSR
Format: cell-based, HEK293
metric: pIC50
// pIC50: -log10(molar conc.)

I have this compound here, `CCN(Cc1ccc(C(=O)N2CCc3ccc(OS(N)(=O)=O)cc3C2)cc1)Cc1ccccn1` , and I need its recorded pIC50.
6.52

====

Biological target: UniProtKB P00918
metric: pKi
// pKi: -log10(molar conc.)

Reported pKi for UniProtKB P00918, given `CCc1cc2c(cc1OS(N)(=O)=O)CC[C@@H]1[C@@H]2CC[C@]2(C)[C@@H](OS(N)(=O)=O)CC[C@@H]12` ?
6.63

====

Test: in vivo
Conditions: mouse, po, 10 mg/kg
metric: bioavailability at 24 h (%)
Lab book: enter the figure in %, no units written.

I have this compound here, `COc1cc2c(cc1OS(N)(=O)=O)CC[C@@H]1[C@@H]2CC[C@]2(C)[C@@H](OS(N)(=O)=O)CC[C@@H]12` , and I need its recorded bioavailability at 24 h.
85

====

Target: UniProt P03372
Sequence (P03372 whole entry): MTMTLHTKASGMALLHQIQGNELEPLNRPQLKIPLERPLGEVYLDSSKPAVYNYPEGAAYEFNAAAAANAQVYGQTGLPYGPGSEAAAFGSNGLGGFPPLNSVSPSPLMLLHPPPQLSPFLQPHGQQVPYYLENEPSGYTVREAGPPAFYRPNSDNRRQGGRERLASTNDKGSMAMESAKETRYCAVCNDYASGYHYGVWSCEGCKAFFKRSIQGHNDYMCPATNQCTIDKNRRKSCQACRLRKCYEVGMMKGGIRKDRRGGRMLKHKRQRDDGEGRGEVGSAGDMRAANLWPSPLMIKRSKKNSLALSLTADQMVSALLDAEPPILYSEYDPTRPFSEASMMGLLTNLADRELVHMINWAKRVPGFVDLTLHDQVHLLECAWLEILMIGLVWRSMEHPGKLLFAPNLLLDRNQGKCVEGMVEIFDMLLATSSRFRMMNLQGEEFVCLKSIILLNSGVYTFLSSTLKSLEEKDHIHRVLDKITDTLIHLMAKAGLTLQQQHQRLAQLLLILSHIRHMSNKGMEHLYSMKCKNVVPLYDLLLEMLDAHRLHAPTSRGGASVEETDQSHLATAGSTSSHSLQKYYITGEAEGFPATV
metric: IC50 (µM)
Lab book: enter the figure in µM, no units written.

I have this molecule here, `CCN(Cc1ccc(C(=O)N2CCc3ccc(OS(N)(=O)=O)cc3C2)cc1)Cc1ccccn1` , and I need its recorded IC50.
3.1
